- experimental target: human ether-à-go-go-related gene (hERG) potassium channel (human);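 also: peak tail current of the secondary pulse compared with the same well before compound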
- Sequence (Q12809 whole entry, looked up): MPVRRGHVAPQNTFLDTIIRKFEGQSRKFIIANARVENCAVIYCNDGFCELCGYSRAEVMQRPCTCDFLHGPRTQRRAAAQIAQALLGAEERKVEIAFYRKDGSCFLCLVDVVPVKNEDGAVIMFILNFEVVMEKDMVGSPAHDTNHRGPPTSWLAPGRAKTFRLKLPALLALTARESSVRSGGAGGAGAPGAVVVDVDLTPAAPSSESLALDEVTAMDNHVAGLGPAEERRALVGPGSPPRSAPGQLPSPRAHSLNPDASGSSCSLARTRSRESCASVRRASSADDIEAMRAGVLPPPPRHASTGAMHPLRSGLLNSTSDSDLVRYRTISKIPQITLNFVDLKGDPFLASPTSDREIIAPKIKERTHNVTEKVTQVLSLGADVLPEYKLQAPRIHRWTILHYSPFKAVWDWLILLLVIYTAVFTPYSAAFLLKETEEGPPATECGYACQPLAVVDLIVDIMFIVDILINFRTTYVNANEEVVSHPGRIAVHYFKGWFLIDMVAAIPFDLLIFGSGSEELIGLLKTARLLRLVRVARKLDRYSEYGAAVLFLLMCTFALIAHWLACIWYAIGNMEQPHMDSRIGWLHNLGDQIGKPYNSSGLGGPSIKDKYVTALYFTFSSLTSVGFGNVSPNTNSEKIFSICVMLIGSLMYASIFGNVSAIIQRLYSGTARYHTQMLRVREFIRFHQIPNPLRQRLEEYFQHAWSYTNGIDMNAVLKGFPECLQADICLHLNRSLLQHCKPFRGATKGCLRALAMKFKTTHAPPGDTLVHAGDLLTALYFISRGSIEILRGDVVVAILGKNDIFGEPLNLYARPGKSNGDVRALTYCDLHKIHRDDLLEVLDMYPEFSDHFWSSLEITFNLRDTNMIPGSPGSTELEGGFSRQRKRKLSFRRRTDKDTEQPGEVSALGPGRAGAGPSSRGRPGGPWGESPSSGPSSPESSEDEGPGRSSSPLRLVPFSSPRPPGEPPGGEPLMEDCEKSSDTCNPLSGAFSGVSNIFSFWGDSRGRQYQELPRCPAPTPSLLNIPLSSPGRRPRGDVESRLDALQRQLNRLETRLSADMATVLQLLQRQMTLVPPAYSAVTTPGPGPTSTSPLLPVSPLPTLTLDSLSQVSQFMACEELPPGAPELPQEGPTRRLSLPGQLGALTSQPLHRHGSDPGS
- measurement protocol: primary screen, population patch clamp on CHO cells stably expressing hERG; higher = less effect of the substance
Hit rate of the full screen: of about 310,000 compounds, about 14,000 (4.5%) showed an effect of 50% or more. The effect is printed as a negative number. This excerpt belongs to a sample that is enriched for strong results.
value type: hERG current change (%, negative = inhibition) at 10uM

| structure string | observed measurement |
| --- | --- |
| CC(=O)Nc1nnc(CCS(=O)(=O)c2ccc(C)c(C)c2)s1 | 8.73% |
| CN1C(=O)C(=Cc2ccc(N3CCCCCC3)cc2)C(=O)N(C)C1=O | 13.1% |
| Cc1nc2ccccc2n1CCOc1ccc([N+](=O)[O-])cc1 | -73.8% |
| C=CCNC(=O)c1cc(-c2ccccc2O)on1 | 8.16% |
| COc1ccc(C(C)=O)cc1COC(=O)CNC(=O)c1cc(C)cc(C)c1 | -11.7% |
| Cc1nc2ccccc2n1CCOc1ccccc1 | 6.17% |
| COc1ccccc1CC(=O)N1CCCc2ccccc21 | 0.493% |
| Cc1ccc(OCCn2c(C)nc3ccccc32)cc1 | 3.94% |
| CCCCCN(C(=O)CCC(=O)OCC(=O)N(C)Cc1ccc(C)cc1)c1c(N)n(CCCC)c(=O)[nH]c1=O | 1.93% |
| Cn1c(=O)n(CCOc2ccc([N+](=O)[O-])cc2)c2ccccc21 | -65.3% |
